Hey, just so you know, these numbers are from patent US8952024B2.

# Tested on: soybean (Glycine max)
# method_notes: Test B pre-/postemergence plant response
# Assay type: in vivo
# settings: Postemergence, 250 g ai/ha; scale 0 to 100 (0 no effect, 100 complete control); 13 to 15 days
observed_property: Plant response rating, Soybean
Write the number on its own, no unit after it.

// known answers, use as guide
>>> recorded_measurement("COCCn1c(-c2ccsc2)ncc(C(=O)C2=C(O)C3CCC(C3)C2=O)c1=O (stereo not shown) [Compound 228]")
100
>>> recorded_measurement("CCCn1c(-c2cccc(Br)c2)ncc(C(=O)C2=C(O)CCCC2=O)c1=O [Compound 141]")
90
>>> recorded_measurement("COCCn1c(-c2cccc(F)c2)ncc(C(=O)C2=C(O)C3CCC(C3)C2=O)c1=O (stereo not shown) [Compound 235]")
100

Turning to the following compound.
**Q:** Read off the recorded Plant response rating, Soybean for COCCCn1c(-c2cccc(F)c2)ncc(C(=O)C2=C(O)C3CCC(C3)C2=O)c1=O (stereo not shown) [Compound 238]
**A:** 100

----------
# Test system: ducksalad (Heteranthera limosa)
# method_notes: Test B flooded paddy test
# Assay type: in vivo
# settings: Flood (flooded paddy test), 125 g ai/ha; scale 0 to 100, 0 is no effect, 100 is complete control; 13 to 15 days
# From the text: Plant species in the flooded paddy test consisted of rice (Oryza sativa), umbrella sedge (Cyperus difformis), ducksalad (Heteranthera limosa) and barnyardgrass (Echinochloa crus-galli) grown to the 2-leaf stage for testing. […] Treated plants and controls were maintained in a greenhouse for 13 to 15 days, after which time all treated plants were visually evaluated and compared to controls. […]
observed_property: Plant response rating, Ducksalad
// return a plain number; no unit text

Illustrative cases are given below, each with its answer.
>>> recorded_measurement("Cc1cccc(-c2ncc(C(=O)C3=C(O)CCCC3=O)c(=O)n2C2CCCCC2)c1 [Compound 185]")
75
>>> recorded_measurement("CCCCn1c(-c2ccccc2)ncc(C(=O)C2=C(O)CCCC2=O)c1=O [Compound 86]")
55
>>> recorded_measurement("CCCCn1c(-c2cc(F)cc(F)c2)ncc(C(=O)C2=C(O)C3CCC(C3)C2=O)c1=O (stereo not shown) [Compound 245]")
100
>>> recorded_measurement("CCCCc1ncc(C(=O)C2=C(O)CCCC2=O)c(=O)n1-c1ccc(C)cc1 [Compound 67]")
0
>>> recorded_measurement("CCCc1ncc(C(=O)C2=C(O)CCCC2=O)c(=O)n1Cc1ccc(OC)c(OC)c1 [Compound 84]")
0
>>> recorded_measurement("CCc1ccc(-n2c(-c3cccc(Cl)c3)ncc(C(=O)C3=C(O)CCCC3=O)c2=O)cc1 [Compound 174]")
95

We now examine a further compound.
**Q:** Please list Plant response rating, Ducksalad recorded for the compound CCc1cccc(-c2ncc(C(=O)C3=C(O)CCCC3=O)c(=O)n2C2CCCCC2)c1 [Compound 194]
**A:** 50

----------
Entries and their Plant response rating, Barnyardgrass
# Tested on: barnyardgrass (Echinochloa crus-galli)
# method_notes: Test A pre-/postemergence plant response
# Type: in vivo
# settings: Preemergence, 125 g ai/ha; 0 to 100 scale, 0 = no effect, 100 = complete control
# From the text: Seeds of barnyardgrass (Echinochloa crus-galli), large crabgrass (Digitaria sanguinalis), giant foxtail (Setaria faberii), morningglory (Ipomoea spp.), pigweed (Amaranthus retroflexus), velvetleaf (Abutilon theophrasti), wheat (Triticum aestivum) and corn (Zea mays) were planted into a blend of loam soil and sand and treated preemergence with a directed soil spray using test chemicals formulated in a non-phytotoxic solvent mixture which included a surfactant. […]

>>> recorded_measurement("O=C1CCCC(O)=C1C(=O)c1cnc(-c2ccccc2)n(-c2cccc(Br)c2)c1=O")
10
>>> recorded_measurement("Cc1cccc(Cl)c1-n1c(-c2ccccc2)ncc(C(=O)C2=C(O)CCCC2=O)c1=O")
0
>>> recorded_measurement("Cc1ccc(F)cc1-n1c(-c2cccc(Cl)c2)ncc(C(=O)C2=C(O)CCCC2=O)c1=O")
0
>>> recorded_measurement("O=C1CCCC(O)=C1C(=O)c1cnc(-c2ccccc2)n(C2CCCC2)c1=O")
50

**Q:** // fetch Plant response rating, Barnyardgrass given entry CCCCCCc1ncc(C(=O)C2=C(O)CCCC2=O)c(=O)n1-c1ccccc1
**A:** 0

**Q:** Tell me its Plant response rating, Barnyardgrass given O=C1CCCC(O)=C1C(=O)c1cnc(-c2cccc(F)c2)n(C2CCCCC2)c1=O as the entry.
**A:** 20

**Q:** Supply reported Plant response rating, Barnyardgrass belonging to this compound: COCCCn1c(-c2cccc(F)c2)ncc(C(=O)C2=C(O)C3CCC(C3)C2=O)c1=O (centres unmarked)
**A:** 70

**Q:** Give the measured Plant response rating, Barnyardgrass for Cc1ccc(F)cc1-n1c(-c2ccccc2)ncc(C(=O)C2=C(O)CCCC2=O)c1=O
**A:** 30

**Q:** For the compound CCn1c(-c2cccc(Cl)c2)ncc(C(=O)C2=C(O)CCCC2=O)c1=O , give its measured Plant response rating, Barnyardgrass value.
**A:** 20

**Q:** Kindly indicate its recorded Plant response rating, Barnyardgrass. Item: CCn1c(-c2ccccc2)ncc(C(=O)C2=C(O)C3CCC(C3)C2=O)c1=O (centres unmarked)
**A:** 20

**Q:** Could you please provide reported Plant response rating, Barnyardgrass for CC(C)CC(=O)OC1=C(C(=O)c2cnc(-c3ccccc3)n(-c3ccccc3)c2=O)C(=O)CCC1 ? Thanks!
**A:** 30

----------
# Test system: barnyardgrass (Echinochloa crus-galli)
# method_notes: Test A pre-/postemergence plant response
# Format: in vivo
# settings: Postemergence, 125 g ai/ha; 0 to 100 scale where 0 is no effect and 100 is complete control
observed_property: Plant response rating, Barnyardgrass
Kindly provide the number alone.

Known results for compounds:
>>> recorded_measurement("COCC(C)n1c(-c2ccccc2)ncc(C(=O)C2=C(O)CCCC2=O)c1=O (stereo not drawn)")
90
>>> recorded_measurement("COCCCn1c(-c2cc(F)cc(F)c2)ncc(C(=O)C2=C(O)CCCC2=O)c1=O")
90

**Q:** Write down the reported Plant response rating, Barnyardgrass (system: barnyardgrass (Echinochloa crus-galli)) of O=C1CCCC(O)=C1C(=O)c1cnc(-c2cccs2)n(C2CCCCC2)c1=O
**A:** 90

----------
# Tested on: giant foxtail (Setaria faberii)
# method_notes: Test A pre-/postemergence plant response
# Assay type: in vivo
# settings: Preemergence, 125 g ai/ha; 0 to 100 scale, 0 = no effect, 100 = complete control
# Description: Seeds of barnyardgrass (Echinochloa crus-galli), large crabgrass (Digitaria sanguinalis), giant foxtail (Setaria faberii), morningglory (Ipomoea spp.), pigweed (Amaranthus retroflexus), velvetleaf (Abutilon theophrasti), wheat (Triticum aestivum) and corn (Zea mays) were planted into a blend of loam soil and sand and treated preemergence with a directed soil spray using test chemicals formulated in a non-phytotoxic solvent mixture which included a surfactant. […]
observed_property: Plant response rating, Foxtail, Giant
Give only the figure.

Please review the entries below; each comes with its answer.
>>> recorded_measurement("CC(C)CC(=O)OC1=C(C(=O)c2cnc(-c3ccccc3)n(-c3ccccc3)c2=O)C(=O)CCC1")
40
>>> recorded_measurement("CCCn1c(-c2cccc(Br)c2)ncc(C(=O)C2=C(O)CCCC2=O)c1=O")
40

**Q:** State measured Plant response rating, Foxtail, Giant of the compound Cc1ccc(-n2c(-c3ccccc3)ncc(C(=O)C3=C(O)CCCC3=O)c2=O)c(C)c1 with giant foxtail (Setaria faberii).
**A:** 0

**Q:** # assay system giant foxtail (Setaria faberii): give Plant response rating, Foxtail, Giant of C=CCn1c(-c2ccccc2)ncc(C(=O)C2=C(O)CCCC2=O)c1=O
**A:** 0

----------
# Test system: giant foxtail (Setaria faberii)
# method_notes: Test A pre-/postemergence plant response
# Format: in vivo
# settings: Preemergence, 125 g ai/ha; 0 to 100 scale, 0 = no effect, 100 = complete control
# maps each entry to its Plant response rating, Foxtail, Giant
# print the numeric value only

>>> recorded_measurement("Cc1cc(-n2c(-c3cccc(F)c3)ncc(C(=O)C3=C(O)CCCC3=O)c2=O)ccc1F [Compound 191]")
40
>>> recorded_measurement("Cc1ccc(Cl)cc1-n1c(-c2cccc(F)c2)ncc(C(=O)C2=C(O)CCCC2=O)c1=O [Compound 184]")
30
>>> recorded_measurement("C=CCCn1c(-c2ccccc2)ncc(C(=O)C2=C(O)CCCC2=O)c1=O [Compound 214]")
30
>>> recorded_measurement("CCCn1c(-c2cccs2)ncc(C(=O)C2=C(O)CCCC2=O)c1=O [Compound 77]")
0
>>> recorded_measurement("COCCCn1c(-c2cccc(C)c2)ncc(C(=O)C2=C(O)CCCC2=O)c1=O [Compound 118]")
10
>>> recorded_measurement("Cc1cccc(Cl)c1-n1c(-c2ccccc2)ncc(C(=O)C2=C(O)CCCC2=O)c1=O [Compound 46]")
0
>>> recorded_measurement("CCc1ccc(-n2c(-c3cc(F)cc(F)c3)ncc(C(=O)C3=C(O)CCCC3=O)c2=O)cc1 [Compound 158]")
10
>>> recorded_measurement("Cc1ccc(F)cc1-n1c(-c2ccccc2)ncc(C(=O)C2=C(O)CCCC2=O)c1=O [Compound 44]")
30
>>> recorded_measurement("O=C1CCCC(O)=C1C(=O)c1cnc(-c2ccc(Cl)s2)n(-c2ccccc2)c1=O [Compound 65]")
0
>>> recorded_measurement("Cc1ccccc1-n1c(-c2ccccc2)ncc(C(=O)C2=C(O)CCCC2=O)c1=O [Compound 12]")
20

**Q:** Tell us which Plant response rating, Foxtail, Giant value is on record for O=C1CCCC(O)=C1C(=O)c1cnc(-c2ccccc2Br)n(-c2ccccc2)c1=O [Compound 71]
**A:** 0

**Q:** Let me know recorded Plant response rating, Foxtail, Giant for COc1ccc(-n2c(-c3cccc(F)c3)ncc(C(=O)C3=C(O)CCCC3=O)c2=O)cc1 [Compound 203] , thanks.
**A:** 30
